- ASSAYED SYSTEM: Pseudomonas aeruginosa LpxC enzyme (Pseudomonas aeruginosa, UniProt P47205)
- Construct: made in house; host or cells: E. coli
- Sequence (P47205 whole entry): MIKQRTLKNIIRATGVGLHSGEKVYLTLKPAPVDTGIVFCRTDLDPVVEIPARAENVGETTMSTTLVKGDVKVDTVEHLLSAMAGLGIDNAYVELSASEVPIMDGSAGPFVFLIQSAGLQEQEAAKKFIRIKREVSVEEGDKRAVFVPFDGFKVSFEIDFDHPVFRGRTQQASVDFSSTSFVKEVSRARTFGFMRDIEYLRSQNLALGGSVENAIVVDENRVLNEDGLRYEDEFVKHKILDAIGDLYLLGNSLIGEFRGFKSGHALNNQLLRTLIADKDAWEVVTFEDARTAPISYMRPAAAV
- EXPERIMENT: IC50 assay, LpxC enzyme from P. aeruginosa (PA LpxC enzyme IC50)
- Assay type: biochemical
- MEASUREMENT SETUP: PA:IC50, Table 2; LpxC enzyme 0.1 nM, 25° C., 1 hour
pIC50: −log10 of the molar value.

MOLECULE	pIC50
CSc1ccc(-c2cc(=O)n(CC[C@](C)(C(=O)NO)S(C)(=O)=O)cc2F)cc1	9.29

###

// MIC lookup, one value per entry
- Test system: Escherichia coli EC-1: VOGEL, mouse virulent
- EXPERIMENT: MIC determination, EC-1
- Type: cell-based
- MEASUREMENT SETUP: Escherichia coli, read-out: EC-1 (MIC), Table 3, lower of duplicate values
METRIC NAME: MIC

COMPOUND	ASSAYED SYSTEM	METRIC NAME	TEST RESULT
COc1ncccc1-c1cc(=O)n(CCC(C)(C(=O)NO)S(C)(=O)=O)cc1F (centres unmarked)	Escherichia coli EC-1: VOGEL, mouse virulent	MIC	64 µg/mL
CC(CCn1cc(F)c(-c2cncc(F)c2)cc1=O)(C(=O)NO)S(C)(=O)=O (centres unmarked)	Escherichia coli EC-1: VOGEL, mouse virulent	MIC	> 64 µg/mL
CC(CCn1cc(F)c(-c2cc(F)cc(Cl)c2)cc1=O)(C(=O)NO)S(C)(=O)=O (centres unmarked)	Escherichia coli EC-1: VOGEL, mouse virulent	MIC	8 µg/mL
COC(C)c1ccc(-c2cc(=O)n(CCC(C)(C(=O)NO)S(C)(=O)=O)cc2F)cc1 (centres unmarked)	Escherichia coli EC-1: VOGEL, mouse virulent	MIC	16 µg/mL
Cc1ncc(-c2cc(=O)n(CCC(C)(C(=O)NO)S(C)(=O)=O)cc2F)cc1F (centres unmarked)	Escherichia coli EC-1: VOGEL, mouse virulent	MIC	> 64 µg/mL
CC(CCn1cc(F)c(-c2ccncc2F)cc1=O)(C(=O)NO)S(C)(=O)=O (centres unmarked)	Escherichia coli EC-1: VOGEL, mouse virulent	MIC	> 64 µg/mL
CC(CCn1cc(F)c(-c2ccc(O)nc2)cc1=O)(C(=O)NO)S(C)(=O)=O (centres unmarked)	Escherichia coli EC-1: VOGEL, mouse virulent	MIC	> 64 µg/mL
CC(CCn1cc(F)c(-c2ccc(C(F)(F)F)nc2)cc1=O)(C(=O)NO)S(C)(=O)=O (centres unmarked)	Escherichia coli EC-1: VOGEL, mouse virulent	MIC	> 64 µg/mL

###

// MIC lookup, one value per entry
- System: Escherichia coli EC-1: VOGEL, mouse virulent
- EXPERIMENT: MIC determination, EC-1
- Assay type: cell-based
- MEASUREMENT SETUP: Escherichia coli, read-out: EC-1 (MIC), Table 3, lower of duplicate values
METRIC NAME: MIC (µg/mL)

MOLECULE	METRIC NAME	RESULT MODIFIER	TEST RESULT
CC(CCn1cc(F)c(-c2ccccc2F)cc1=O)(C(=O)NO)S(C)(=O)=O (centres unmarked)	MIC	=	4
CC(CCn1cc(F)c(-c2ccccc2)cc1=O)(C(=O)NO)S(C)(=O)=O (centres unmarked)	MIC	=	4
COc1cc(-c2cc(=O)n(CCC(C)(C(=O)NO)S(C)(=O)=O)cc2F)cnc1OC (centres unmarked)	MIC	>	64
CC(CCn1cc(F)c(-c2ccc(Cl)c(C#N)c2)cc1=O)(C(=O)NO)S(C)(=O)=O (centres unmarked)	MIC	=	4
CC(C)Oc1ncccc1-c1cc(=O)n(CCC(C)(C(=O)NO)S(C)(=O)=O)cc1F (centres unmarked)	MIC	=	8
COc1cccc(-c2cc(=O)n(CCC(C)(C(=O)NO)S(C)(=O)=O)cc2F)c1 (centres unmarked)	MIC	=	4
CC(CCn1cc(F)c(-c2cccc(C#N)c2)cc1=O)(C(=O)NO)S(C)(=O)=O (centres unmarked)	MIC	=	64
CC(CCn1cc(F)c(-c2ccc(Cl)cn2)cc1=O)(C(=O)NO)S(C)(=O)=O (centres unmarked)	MIC	=	64
